Reference source for all entries: paper PMC6161010

assay: Stability of the analytes in rat plasma (method validation); type: in vitro ADME; settings: rat plasma, three freeze-thaw cycles −80 °C to room temperature, n = 3; high QC (P, E, C 300; PG, EG, CG 150 ng/mL)
Each item that follows carries a reported Freeze and Thaw Stability, Accuracy.
quantity.name: Freeze and Thaw Stability, Accuracy (%)

[
  {
    "molecule": "Cc1cc(O)c2c(c1)C(=O)c1cc(O)cc(O)c1C2=O [E, emodin]",
    "readout.number": 102.0
  },
  {
    "molecule": "COc1cc(O)c2c(c1)C(=O)c1cc(C)cc(O)c1C2=O [P, physcion]",
    "readout.number": 104.2
  },
  {
    "molecule": "Cc1cc(O)c2c(c1)C(=O)c1cc(O)cc(O[C@@H]3O[C@H](CO)[C@@H](O)[C@H](O)[C@H]3O)c1C2=O [EG, emodin-8-O-β-D-glucoside]",
    "readout.number": 100.9
  }
]

====

assay: Stability of the analytes in rat plasma (method validation); assay type: in vitro ADME; settings: processed rat plasma sample, 4 °C 24 h, n = 3; middle QC (P, E, C 150; PG, EG, CG 75 ng/mL)

[
  {
    "compound": "COc1cc(O[C@@H]2O[C@H](CO)[C@@H](O)[C@H](O)[C@H]2O)c2c(c1)C(=O)c1cc(C)cc(O)c1C2=O [PG, physcion-8-O-β-D-glucoside]",
    "Processed Sample Stability, Accuracy [%]": 92.7
  },
  {
    "compound": "COc1cc(O)c2c(c1)C(=O)c1cc(C)cc(O)c1C2=O [P, physcion]",
    "Processed Sample Stability, Accuracy [%]": 101.6
  },
  {
    "compound": "Cc1cc(O)c2c(c1)C(=O)c1cccc(O[C@@H]3O[C@H](CO)[C@@H](O)[C@H](O)[C@H]3O)c1C2=O [CG, chrysophanol-8-O-β-D-glucoside]",
    "Processed Sample Stability, Accuracy [%]": 100.2
  }
]

====

experiment: Stability of the analytes in rat plasma (method validation); type: in vitro ADME; conditions: rat plasma, three freeze-thaw cycles −80 °C to room temperature, n = 3; middle QC (P, E, C 150; PG, EG, CG 75 ng/mL)

[
  {
    "compound": "Cc1cc(O)c2c(c1)C(=O)c1cc(O)cc(O[C@@H]3O[C@H](CO)[C@@H](O)[C@H](O)[C@H]3O)c1C2=O [EG, emodin-8-O-β-D-glucoside]",
    "units.text": "%",
    "Freeze and Thaw Stability, Accuracy": 112.3
  },
  {
    "compound": "Cc1cc(O)c2c(c1)C(=O)c1cccc(O[C@@H]3O[C@H](CO)[C@@H](O)[C@H](O)[C@H]3O)c1C2=O [CG, chrysophanol-8-O-β-D-glucoside]",
    "units.text": "%",
    "Freeze and Thaw Stability, Accuracy": 101.0
  },
  {
    "compound": "Cc1cc(O)c2c(c1)C(=O)c1cccc(O)c1C2=O",
    "units.text": "%",
    "Freeze and Thaw Stability, Accuracy": 91.8
  }
]

====

Each item that follows carries a reported Processed Sample Stability, Accuracy.
test: Stability of the analytes in rat plasma (method validation); format: in vitro ADME; conditions: processed rat plasma sample, 4 °C 24 h, n = 3; high QC (P, E, C 300; PG, EG, CG 150 ng/mL)

[
  {
    "molecule": "Cc1cc(O)c2c(c1)C(=O)c1cc(O)cc(O[C@@H]3O[C@H](CO)[C@@H](O)[C@H](O)[C@H]3O)c1C2=O [EG, emodin-8-O-β-D-glucoside]",
    "Processed Sample Stability, Accuracy (%)": 100.3
  },
  {
    "molecule": "COc1cc(O[C@@H]2O[C@H](CO)[C@@H](O)[C@H](O)[C@H]2O)c2c(c1)C(=O)c1cc(C)cc(O)c1C2=O [PG, physcion-8-O-β-D-glucoside]",
    "Processed Sample Stability, Accuracy (%)": 96.8
  },
  {
    "molecule": "COc1cc(O)c2c(c1)C(=O)c1cc(C)cc(O)c1C2=O",
    "Processed Sample Stability, Accuracy (%)": 102.7
  },
  {
    "molecule": "Cc1cc(O)c2c(c1)C(=O)c1cc(O)cc(O)c1C2=O",
    "Processed Sample Stability, Accuracy (%)": 104.6
  },
  {
    "molecule": "Cc1cc(O)c2c(c1)C(=O)c1cccc(O[C@@H]3O[C@H](CO)[C@@H](O)[C@H](O)[C@H]3O)c1C2=O [CG, chrysophanol-8-O-β-D-glucoside]",
    "Processed Sample Stability, Accuracy (%)": 96.7
  },
  {
    "molecule": "Cc1cc(O)c2c(c1)C(=O)c1cccc(O)c1C2=O",
    "Processed Sample Stability, Accuracy (%)": 102.3
  }
]

====

experiment: Pharmacokinetic study after oral administration of R. acetosa extract to rats; format: in vivo, Sprague‒Dawley rats; conditions: male, Sprague-Dawley; rat plasma, oral R. acetosa extract 2 g/kg, n = 3, mean ± SD
Each item that follows carries a reported Cmax.

[
  {
    "compound": "Cc1cc(O)c2c(c1)C(=O)c1cc(O)cc(O)c1C2=O",
    "Cmax (ng/mL)": 124
  },
  {
    "compound": "Cc1cc(O)c2c(c1)C(=O)c1cccc(O[C@@H]3O[C@H](CO)[C@@H](O)[C@H](O)[C@H]3O)c1C2=O [CG, chrysophanol-8-O-β-D-glucoside]",
    "Cmax (ng/mL)": 28.7
  },
  {
    "compound": "COc1cc(O[C@@H]2O[C@H](CO)[C@@H](O)[C@H](O)[C@H]2O)c2c(c1)C(=O)c1cc(C)cc(O)c1C2=O [PG, physcion-8-O-β-D-glucoside]",
    "Cmax (ng/mL)": 20.5
  },
  {
    "compound": "Cc1cc(O)c2c(c1)C(=O)c1cccc(O)c1C2=O",
    "Cmax (ng/mL)": 156
  }
]

====

assay: Stability of the analytes in rat plasma (method validation); assay type: in vitro ADME; conditions: rat plasma, three freeze-thaw cycles −80 °C to room temperature, n = 3; middle QC (P, E, C 150; PG, EG, CG 75 ng/mL)
Each item that follows carries a reported Freeze and Thaw Stability, Accuracy.

[
  {
    "compound": "Cc1cc(O)c2c(c1)C(=O)c1cc(O)cc(O)c1C2=O",
    "Freeze and Thaw Stability, Accuracy / %": 104.5
  },
  {
    "compound": "COc1cc(O)c2c(c1)C(=O)c1cc(C)cc(O)c1C2=O",
    "Freeze and Thaw Stability, Accuracy / %": 103.9
  },
  {
    "compound": "COc1cc(O[C@@H]2O[C@H](CO)[C@@H](O)[C@H](O)[C@H]2O)c2c(c1)C(=O)c1cc(C)cc(O)c1C2=O [PG, physcion-8-O-β-D-glucoside]",
    "Freeze and Thaw Stability, Accuracy / %": 94.3
  }
]

====

assay: Stability of the analytes in rat plasma (method validation); format: in vitro ADME; conditions: rat plasma, room temperature 4 h, n = 3; high QC (P, E, C 300; PG, EG, CG 150 ng/mL)

[
  {
    "compound": "COc1cc(O)c2c(c1)C(=O)c1cc(C)cc(O)c1C2=O",
    "Short Term Stability, Accuracy / %": 103.8
  },
  {
    "compound": "COc1cc(O[C@@H]2O[C@H](CO)[C@@H](O)[C@H](O)[C@H]2O)c2c(c1)C(=O)c1cc(C)cc(O)c1C2=O [PG, physcion-8-O-β-D-glucoside]",
    "Short Term Stability, Accuracy / %": 96.7
  },
  {
    "compound": "Cc1cc(O)c2c(c1)C(=O)c1cc(O)cc(O[C@@H]3O[C@H](CO)[C@@H](O)[C@H](O)[C@H]3O)c1C2=O [EG, emodin-8-O-β-D-glucoside]",
    "Short Term Stability, Accuracy / %": 98.9
  },
  {
    "compound": "Cc1cc(O)c2c(c1)C(=O)c1cc(O)cc(O)c1C2=O",
    "Short Term Stability, Accuracy / %": 101.8
  },
  {
    "compound": "Cc1cc(O)c2c(c1)C(=O)c1cccc(O[C@@H]3O[C@H](CO)[C@@H](O)[C@H](O)[C@H]3O)c1C2=O [CG, chrysophanol-8-O-β-D-glucoside]",
    "Short Term Stability, Accuracy / %": 101.8
  },
  {
    "compound": "Cc1cc(O)c2c(c1)C(=O)c1cccc(O)c1C2=O",
    "Short Term Stability, Accuracy / %": 101.2
  }
]

====

Each item that follows carries a reported Long Term Stability, Accuracy.
assay: Stability of the analytes in rat plasma (method validation); format: in vitro ADME; conditions: rat plasma, −80 °C one month, n = 3; high QC (P, E, C 300; PG, EG, CG 150 ng/mL)
quantity.name: Long Term Stability, Accuracy (%)

[
  {
    "molecule": "COc1cc(O[C@@H]2O[C@H](CO)[C@@H](O)[C@H](O)[C@H]2O)c2c(c1)C(=O)c1cc(C)cc(O)c1C2=O [PG, physcion-8-O-β-D-glucoside]",
    "units.text": "%",
    "readout.number": 97.1
  },
  {
    "molecule": "Cc1cc(O)c2c(c1)C(=O)c1cc(O)cc(O)c1C2=O [E, emodin]",
    "units.text": "%",
    "readout.number": 107.7
  },
  {
    "molecule": "Cc1cc(O)c2c(c1)C(=O)c1cc(O)cc(O[C@@H]3O[C@H](CO)[C@@H](O)[C@H](O)[C@H]3O)c1C2=O [EG, emodin-8-O-β-D-glucoside]",
    "units.text": "%",
    "readout.number": 102.8
  },
  {
    "molecule": "Cc1cc(O)c2c(c1)C(=O)c1cccc(O[C@@H]3O[C@H](CO)[C@@H](O)[C@H](O)[C@H]3O)c1C2=O [CG, chrysophanol-8-O-β-D-glucoside]",
    "units.text": "%",
    "readout.number": 101.5
  },
  {
    "molecule": "COc1cc(O)c2c(c1)C(=O)c1cc(C)cc(O)c1C2=O [P, physcion]",
    "units.text": "%",
    "readout.number": 98.0
  },
  {
    "molecule": "Cc1cc(O)c2c(c1)C(=O)c1cccc(O)c1C2=O [C, chrysophanol]",
    "units.text": "%",
    "readout.number": 102.6
  }
]
